Origin of measurements: the supplement of paper PMC10681739

subject of test: ETS1 (UniProt P14921)
Sequence: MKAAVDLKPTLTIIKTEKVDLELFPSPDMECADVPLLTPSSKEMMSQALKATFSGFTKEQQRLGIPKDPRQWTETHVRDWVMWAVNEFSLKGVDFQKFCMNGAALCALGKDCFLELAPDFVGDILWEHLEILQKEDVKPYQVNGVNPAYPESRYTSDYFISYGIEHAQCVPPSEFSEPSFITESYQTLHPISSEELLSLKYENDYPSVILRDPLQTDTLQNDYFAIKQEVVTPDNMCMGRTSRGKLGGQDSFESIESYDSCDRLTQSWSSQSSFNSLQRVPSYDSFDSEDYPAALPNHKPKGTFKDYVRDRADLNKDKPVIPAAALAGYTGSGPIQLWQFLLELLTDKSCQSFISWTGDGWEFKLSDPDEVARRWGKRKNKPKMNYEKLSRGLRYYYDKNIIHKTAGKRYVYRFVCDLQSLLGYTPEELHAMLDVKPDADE
protocol description: ETS1 binding intensity (PBM fluorescence), ETS1 alone (arbitrary fluorescence units); higher = stronger binding
condition set: ETS1 concentration 1 nM; RUNX1 concentration 0 nM
For each of the sequences below, state its ETS1 binding intensity.
Answers are plain numbers.

Some solved cases for reference:
GAAGAAGTCAGGAAATGCTGCCGCAGCAGCCAGCCC 878
GCTTCTGAGGAAGTGCGTTCTGTGGGTAGGTGGAGT 677
TAGAAAAGGAAGCAGGGTAGGTGTGGTATCTGGGTC 587
CTGAGGCGCGCCGGAAGGGCTAGCGGTCCCAGCATA 1280
AGTACAAAGGGGAAATGTCTCTTGGTGGTTGATAAG 628

List the reported ETS1 binding intensity of each sequence below.
1. GAGACTTTCGCTTCCGGCTGCCGCAGGCGCTTCGCT
2. GGTGGCCGCCGGAAGTGTGACCGCGGGAGGGGAGTG
3. TGAAGTACTAGTCAAGGATGTGGTTTTACATAGCAG

1830
7650
586
